Listing of recorded GI50 by entry.
- Test system: SK-MEL-2
- Method Description: NCI tumour cell line growth inhibition, 48 h
Activity calls are given as the source filed them. No stated cut-off is given here; in the data, active = GI50 up to about 1.1 µM and inactive = higher.
Reported Endpoint: GI50

Nc1nc(Cc2ccccc2)nc(Cc2ccccc2)c1-c1ccccc1: 13.6 µM (inactive)
COC1OC(Cn2c(C)nc(Br)c2Br)C(O)C(O)C1O (configuration not stated): > 100 µM (inactive)
O=C1CC(O)c2c(Cl)sc(Cl)c21 (configuration not stated): 13.5 µM (inactive)
CCOC(=O)N1CCc2cc(OC)c(OC)c3c2c1cc1cc(OC)c(OC)cc13: 2.24 µM (inactive)
COC1C=C(NCC2(CO)CCC2)N=C(N)N1 (configuration not stated): > 100 µM (inactive)
CC(C(=O)NCNC(=O)c1ccccc1)C(=O)NCc1ccccc1 (configuration not stated): > 100 µM (inactive)
CC(C)(C)NC(=S)N/N=C/c1ccccn1: 0.724 µM (active)
O=C1CCC(=O)N1n1c(Cc2ccc(Cl)cc2)n[nH]c1=O: > 100 µM (inactive)
CN(C)CC1CCCc2ccccc2C1=O (configuration not stated): 2.02 µM (inactive)
Nc1cc(CO)cc(Nc2c3ccccc3nc3ccccc23)c1: 14.1 µM (inactive)
COc1ccc(C2=C(Cl)c3cc(OC)c(OC)cc3C2Cl)cc1 (configuration not stated): 12.1 µM (inactive)
O=[N+]([O-])c1cc(Cl)cc2c1nc(NCCO)c1ccccc12: 10.5 µM (inactive)
